# Test system: pancreatic (PANC-1) tumor cell lines
# assay-notes: Cytotoxicity vs. PANC-1 tumor cell line
# condition-description: read-out: PANC-1 IC50; PANC-1; this work, ± SEM, N = 2
value-type: IC50 (nM)
A number alone suffices; assume nM.

Look up IC50 of C=CC/C=C\Cc1csc(C(C)(C)C(=O)C/C=C\C(=C)CCNC(=O)OC)n1 and report it.
2000
